These data points were gathered from patent US11919901B2.

measured_target: hERG (Homo sapiens (Human))
Sequence (Q12809 whole entry): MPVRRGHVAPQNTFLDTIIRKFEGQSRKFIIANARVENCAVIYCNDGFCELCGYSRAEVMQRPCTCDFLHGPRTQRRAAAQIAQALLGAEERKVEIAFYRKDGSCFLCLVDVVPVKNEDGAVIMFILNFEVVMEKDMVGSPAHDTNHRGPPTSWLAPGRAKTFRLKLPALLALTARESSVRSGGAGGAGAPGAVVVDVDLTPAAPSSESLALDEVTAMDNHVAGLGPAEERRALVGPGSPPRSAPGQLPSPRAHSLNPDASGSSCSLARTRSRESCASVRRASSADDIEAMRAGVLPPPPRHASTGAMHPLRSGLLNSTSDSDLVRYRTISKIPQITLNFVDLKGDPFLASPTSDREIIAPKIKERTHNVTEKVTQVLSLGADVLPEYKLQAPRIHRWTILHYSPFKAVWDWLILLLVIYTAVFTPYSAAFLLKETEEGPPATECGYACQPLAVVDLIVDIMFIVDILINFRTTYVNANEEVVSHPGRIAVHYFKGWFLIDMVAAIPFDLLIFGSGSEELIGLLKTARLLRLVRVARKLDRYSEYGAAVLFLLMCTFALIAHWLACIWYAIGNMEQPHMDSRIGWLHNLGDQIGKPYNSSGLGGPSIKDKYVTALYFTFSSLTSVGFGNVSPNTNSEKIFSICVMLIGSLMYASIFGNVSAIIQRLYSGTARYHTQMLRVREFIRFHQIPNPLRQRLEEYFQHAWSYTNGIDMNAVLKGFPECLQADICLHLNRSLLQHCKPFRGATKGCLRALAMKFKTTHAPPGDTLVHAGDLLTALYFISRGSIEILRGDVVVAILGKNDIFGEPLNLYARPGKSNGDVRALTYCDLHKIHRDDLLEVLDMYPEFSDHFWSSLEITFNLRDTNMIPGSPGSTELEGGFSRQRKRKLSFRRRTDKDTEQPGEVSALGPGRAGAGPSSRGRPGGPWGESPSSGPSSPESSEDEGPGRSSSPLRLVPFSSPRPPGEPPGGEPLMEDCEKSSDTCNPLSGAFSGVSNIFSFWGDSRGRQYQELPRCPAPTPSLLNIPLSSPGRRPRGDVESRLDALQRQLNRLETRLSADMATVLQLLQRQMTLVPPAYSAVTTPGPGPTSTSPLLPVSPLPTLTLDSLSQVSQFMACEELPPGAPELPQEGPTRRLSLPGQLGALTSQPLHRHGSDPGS
procedure_text: Patch clamp assay (hERG tail currents, whole-cell)
Assay type: cell-based
settings: 30 μM compound, hERG transfected HEK 293 cells
parameter_measured: hERG % Remaining 30 μM

These recorded examples may help you get a feel for the data.
| smi | measured_target | hERG % Remaining 30 μM |
| --- | --- | --- |
| C[C@@H]1COC[C@@H](C)N1C(=O)c1cc(F)ccc1Oc1cncnc1N1CC2(CCN(C[C@@H]3CC[C@@H](NS(=O)(=O)N4CCC4)CO3)CC2)C1 | hERG (Homo sapiens (Human)) | +++ (“+++” means ≥66%) |
| CCN(C(=O)c1cc(F)ccc1Oc1cncnc1N1CC2(CCN(C[C@@H]3CC[C@@H](NC(=O)OC(C)(C)C)CO3)CC2)C1)C(C)C | hERG (Homo sapiens (Human)) | + (“+” means <33%) |
| CC(C)N(CC(F)F)C(=O)c1cc(F)ccc1Oc1cncnc1N1CC2(CCN(C[C@@H]3CC[C@@H](NS(=O)(=O)N(C)CCO)CO3)CC2)C1 | hERG (Homo sapiens (Human)) | +++ (“+++” means ≥66%) |
| CCN(CC)S(=O)(=O)N[C@@H]1CC[C@@H](CN2CCC3(CC2)CN(c2ncncc2Oc2ccc(F)cc2C(=O)N(CC(F)F)C(C)C)C3)OC1 | hERG (Homo sapiens (Human)) | + (“+” means <33%) |
| CC(C)N(CC(F)F)C(=O)c1cc(F)ccc1Oc1cncnc1N1CC2(CCN(C[C@@H]3CC[C@@H](NS(=O)(=O)c4cnn(C)c4)CO3)CC2)C1 | hERG (Homo sapiens (Human)) | +++ (“+++” means ≥66%) |

Request: Quick one: hERG % Remaining 30 μM for `CCNS(=O)(=O)N[C@@H]1CC[C@@H](CN2CCC3(CC2)CN(c2ncncc2Oc2ccc(F)cc2C(=O)N(CC)C(C)C)C3)OC1` ?
Response: +++ (“+++” means ≥66%)

Request: Next record, please: `CC(C)N(C(=O)c1cc(F)ccc1Oc1cncnc1N1CC2(CCN(C[C@@H]3CC[C@@H](NS(=O)(=O)C4CC4)CO3)CC2)C1)C1CC(F)(F)C1`
Response: + (“+” means <33%)

Request: Next record, please: `CC(C)N(C(=O)c1cc(F)ccc1Oc1cncnc1N1CC2(CCN(C[C@@H]3CC[C@@H](NS(=O)(=O)C4COC4)CO3)CC2)C1)C(C)C`
Response: +++ (“+++” means ≥66%)

Request: Next record, please: `CC(C)N(C(=O)c1cc(F)ccc1Oc1cncnc1N1CC2(CCN(C[C@@H]3CC[C@@H](NS(=O)(=O)N(C)C(C)C)CO3)CC2)C1)C1CC(F)(F)C1`
Response: + (“+” means <33%)
